tested on: ANKA strain of P. berghei; experiment: Single dose STI in vivo screen in infected mice; parameters: species or system Plasmodium berghei; details: single 10 mg/kg sc in 3% ethanol and 7% Tween 80; untreated 6-7 days
ASSAY METRIC: Survival (days) 10 mg/kg sc
Enter your answer as a number in days; do not include the unit.

>  <COMPOUND>
O=C(O)c1cccc([C@H]2CC[C@]3(CC2)OOC2(O3)C3CC4CC(C3)CC2C4)c1 (some centres unmarked)

>  <U>
days

>  <Survival (days) 10 mg/kg sc>
5.7

$$$$

O=C(C[C@H]1CC[C@]2(CC1)OOC1(O2)C2CC3CC(C2)CC1C3)N1CCOCC1 (some centres unmarked) on ANKA strain of P. berghei gives Survival (days) 10 mg/kg sc = 10.7

Result for O=[N+]([O-])c1cc(C2(c3ccc(Cl)c([N+](=O)[O-])c3)OOC3(O2)C2CC4CC(C2)CC3C4)ccc1Cl (centres unmarked) , tested on ANKA strain of P. berghei, Survival (days) 10 mg/kg sc: 5.3

Here BrC[C@H]1CC[C@]2(CC1)OOC1(O2)C2CC3CC(C2)CC1C3 (some centres unmarked) was tested on ANKA strain of P. berghei, and its Survival (days) 10 mg/kg sc came to 16

O=C(O)c1cncn1C[C@H]1CC[C@]2(CC1)OOC1(O2)C2CC3CC(C2)CC1C3 (some centres unmarked) on ANKA strain of P. berghei gives Survival (days) 10 mg/kg sc = 6.0

Reported Survival (days) 10 mg/kg sc (ANKA strain of P. berghei) for entry O=C(C[C@H]1CC[C@]2(CC1)OOC1(O2)C2CC3CC(C2)CC1C3)Nc1nccs1 (some centres unmarked) is 8.0

With ANKA strain of P. berghei as the test system, O=C1COC2(CCC3(CC2)OOC2(O3)C3CC4CC(C3)CC2C4)OC1 (centres unmarked) showed Survival (days) 10 mg/kg sc of 7.3

Short answer on ANKA strain of P. berghei for C1C2CC3CC1CC(C2)C31OO[C@]2(CC[C@@H](CNC3CC3)CC2)O1 (some centres unmarked) , Survival (days) 10 mg/kg sc: 9.3

The observed Survival (days) 10 mg/kg sc for O=C(OCCn1ccnc1)C1CCC2(CC1)OOC1(O2)C2CC3CC(C2)CC1C3 (centres unmarked) when tested with ANKA strain of P. berghei stands at 7.7
